Catalogue of Ratio readings, one per entry.
- measured target: Angiotensin II receptor (Rattus norvegicus) (UniProt P29089+P25095+P35351)
- assay details: Ratio of receptor binding affinity AT2/AT1 in rat adrenal tissue
Enter a number only.

# count of solved cases: 5
| smiles code | Ratio |
| --- | --- |
| Cn1nnnc1-c1ccccc1-c1ccc(Cn2cnc3ccc(N(Cc4ccc(O)cc4)C(=O)c4ccccc4)cc3c2=O)cc1 | 1.5 |
| CCCCCN(C(=O)c1ccc(O)cc1)c1ccc2ncn(Cc3ccc(-c4ccccc4-c4nnnn4C)cc3)c(=O)c2c1 | 3.1 |
| CCCCN(C(=O)c1ccc(O)cc1)c1ccc2ncn(Cc3ccc(-c4ccccc4-c4nnnn4C)cc3)c(=O)c2c1 | 17 |
| COC(=O)c1ccc(CN(C(=O)c2ccccc2)c2ccc3ncn(Cc4ccc(-c5ccccc5-c5nnnn5C)cc4)c(=O)c3c2)cc1 | 1.9 |
| Cn1nnnc1-c1ccccc1-c1ccc(Cn2cnc3ccc(N(Cc4ccccn4)C(=O)c4ccccc4)cc3c2=O)cc1 | 0.5 |

Given Cn1nnnc1-c1ccccc1-c1ccc(Cn2cnc3ccc(N(Cc4ccccn4)C(=O)c4ccncc4)cc3c2=O)cc1 , state its recorded Ratio.
1.6

What about this compound? Cn1nnnc1-c1ccccc1-c1ccc(Cn2cnc3ccc(N(Cc4ccccn4)C(=O)c4ccco4)cc3c2=O)cc1
0.3

* * *

- assay details: Bioavailability in dog (dose 3.0 mg/kg p.o.)
- Type: ADME, organism-based, Canis lupus familiaris
- run parameters: in vivo, po
property label: bioavailability (%)
The answer is to be given in %; state only the numeric part.

Given Cn1nnnc1-c1ccccc1-c1ccc(Cn2cnc3ccc(N(Cc4cccnc4)C(=O)c4ccccc4)cc3c2=O)cc1 , state its recorded bioavailability.
56

* * *

- assay details: physchem
- run parameters: octanol/water
- Description: Partition coefficient (logP)
property label: logP
Enter a number only.

# count of solved cases: 8
| smiles code | logP |
| --- | --- |
| Cn1nnnc1-c1ccccc1-c1ccc(Cn2cnc3ccc(N(Cc4ccccc4)C(=O)c4ccccn4)cc3c2=O)cc1 | 3.8 |
| CCCCCN(C(=O)c1ccc(F)cc1)c1ccc2ncn(Cc3ccc(-c4ccccc4-c4nnnn4C)cc3)c(=O)c2c1 | 5.2 |
| CCCCC(=O)N(Cc1ccccc1)c1ccc2ncn(Cc3ccc(-c4ccccc4-c4nnnn4C)cc3)c(=O)c2c1 | 5.4 |
| CC(=O)OCCCCN(C(=O)c1ccccc1)c1ccc2ncn(Cc3ccc(-c4ccccc4-c4nnnn4C)cc3)c(=O)c2c1 | 3.3 |
| Cn1nnnc1-c1ccccc1-c1ccc(Cn2cnc3ccc(N(Cc4ccccc4)C(=O)c4cccnc4)cc3c2=O)cc1 | 3.7 |
| CCOC(=O)CCCN(C(=O)c1ccccc1)c1ccc2ncn(Cc3ccc(-c4ccccc4-c4nnnn4C)cc3)c(=O)c2c1 | 4.1 |
| Cn1nnnc1-c1ccccc1-c1ccc(Cn2cnc3ccc(N(Cc4ccc(O)cc4)C(=O)c4ccccc4)cc3c2=O)cc1 | 3.6 |
| CCCCCN(C(=O)c1ccccc1)c1ccc2ncn(Cc3ccc(-c4ccccc4-c4nnnn4C)cc3)c(=O)c2c1 | 5.1 |

// moving on: another record for logP
Given Cn1nnnc1-c1ccccc1-c1ccc(Cn2cnc3ccc(N(Cc4ccccn4)C(=O)c4ccccc4)cc3c2=O)cc1 , state its recorded logP.
3.6

* * *

- assay details: Bioavailability in dog (dose of 1.0 mg/kg i.v.) 0.5 hr
- Type: ADME, organism-based, Canis lupus familiaris
- run parameters: in vivo, iv
Catalogue of bioavailability readings, one per entry.
The answer is to be given in %; state only the numeric part.

| smiles code | result unit | bioavailability |
| --- | --- | --- |
| CCCCCN(C(=O)c1ccccc1)c1ccc2ncn(Cc3ccc(-c4ccccc4-c4nnnn4C)cc3)c(=O)c2c1 | % | 73 |

// moving on: another record for bioavailability
Given Cn1nnnc1-c1ccccc1-c1ccc(Cn2cnc3ccc(N(Cc4cccnc4)C(=O)c4ccccc4)cc3c2=O)cc1 , state its recorded bioavailability.
84
